Test system: T47D
Test: NCI tumour cell line growth inhibition, 48 h
Activity calls are given as the source filed them. No stated cut-off is given here; in the data, active = GI50 up to about 1.1 µM and inactive = higher.
API: response.call in y = active, n = inactive

Look over these answered cases.
COC1/C=C\C=C(/C)C(=O)Nc2cc3nc4ccc(Br)cc4oc-3c(c2=O)CC(C)CC(OC)C(O)C(C)/C=C(\C)C1OC(N)=O (stereo not given) ... y
O=[N+]([O-])c1c(O)c2nonc2c2nn(-c3ccccc3)nc12 ... n
Brc1ccc(C2C3CSc4ccccc4C3=NN2c2ccccc2)cc1 (stereo not given) ... n
N#Cc1c(N)c2c(c(-c3ccccc3)c1-c1ccccc1)C(=O)N(O)C2=O ... n

From here, focus on the item given below.
Task: GET /call?item= O=C(O)c1ccccc1/C=N\N=C1NCCCCN1 returns the recorded outcome of this test.
Result: n

----------
Would you kindly list GI50 for each of these compounds?
System: SNB-75
Experiment: NCI tumour cell line growth inhibition, 48 h
Calls of active or inactive are those of the source. Cut-off read from the data, not from the text of the source: active = GI50 up to about 1.1 µM and inactive = higher. Where a SMILES comes first, the peptide text is derived from it. [ ]: non-standard residue; d: D form. The star is where a group is joined. ξ: configuration not given here. Propanoyl(3-(4-MeO-Ph)) = COc1ccc(CCC(=O)*)cc1; Thr(3ξ) = CC(O)[C@H](N)C(=O)O; dNMeL = CN[C@H](CC(C)C)C(=O)O; OBn = c1ccc(CO*)cc1; ξLac = CC(O)C(=O)O

Here are 6 compounds together with their reported answers.
CC(C)(C)/N=C\N(C=C(c1ccccc1)c1ccccc1)C1CCCCC1 ... 33.7 µM (inactive)
O=C1CSC(c2cc3cc(Br)ccc3nc2Cl)N1c1ccc(F)c(Cl)c1 (centres undefined) ... > 50 µM (inactive)
O=c1c2cc(Br)ccc2[nH]c(=S)n1-c1ccccc1 ... > 100 µM (inactive)
CCCCNc1nc(SC)nc2[nH]cnc12 ... 76.7 µM (inactive)
O=C1N[C@@H](c2c[nH]c3cc(Br)ccc23)C(=O)N[C@H]1c1c[nH]c2cc(Br)ccc12 ... 9.4 µM (inactive)
COc1cc(CNc2cnc3ccc(N)cc3n2)cc(OC)c1OC ... > 100 µM (inactive)

Provide GI50 for all items below, preserving their order.
1. CC(C)(C)c1ccc(-c2nnc(-c3cc(C#N)cc(-c4nnc(-c5ccc(C(C)(C)C)cc5)o4)c3)o2)cc1
2. COc1ccc(CCC(=O)OC(C)[C@H](NC(=O)[C@@H](CC(C)C)N(C)C(=O)[C@@H]2CCCN2C(=O)C(C)O)C(=O)OCc2ccccc2)cc1 (some centres undefined) (H-[ξLac]P[dNMeL][Thr(3ξ)](Propanoyl(3-(4-MeO-Ph)))-OBn)
3. Cc1ccc(NC(c2ccccc2)c2ccc3cccnc3c2O)cc1 (centres undefined)
4. COC(=O)c1c(C)cccc1/C=C1\Cc2cc(C)cc(C)c2C1=O
5. C[N+](C)(C)CCOP(=O)([O-])OCCNC(=O)c1ccc2ccccc2c1
6. CC(C)/C(Cl)=N/OC(=O)Nc1ccc(F)c(Cl)c1
7. N=C(N)NS(=O)(=O)c1ccc(NC(=O)c2cccc3c(Nc4ccc(S(=O)(=O)N=C(N)N)cc4)c4ccccc4nc23)cc1
8. COc1cccc(C(=O)N2CCc3ccccc32)c1OC

Result:
1: 88.9 µM (inactive); 2: 19.9 µM (inactive); 3: 6.37 µM (inactive); 4: 12.9 µM (inactive); 5: > 100 µM (inactive); 6: 17.8 µM (inactive); 7: 6.05 µM (inactive); 8: 68.4 µM (inactive)

----------
Would you kindly list GI50 for each of these compounds?
Tested on: OVCAR-5
Assay: NCI tumour cell line growth inhibition, 48 h
Activity calls are given as the source filed them. Rule as the data show it: active = GI50 up to about 1.1 µM and inactive = higher.

Here are 3 compounds together with their reported answers.
COc1ccc(N2C(=O)CC(c3c[nH]c4ccccc34)C2=O)cc1 (stereo not drawn) ... > 100 µM (inactive)
COc1ccc2nc3c([N+](=O)[O-])ccc(NCCCN(C)C)c3c(N)c2c1 ... 1.43 µM (inactive)
CC1=C(C(=O)CC(=O)C(=O)Nc2ccc(Cl)cc2C)Sc2ccccc2N1 ... > 100 µM (inactive)

Provide GI50 for all items below, preserving their order.
1. CN(C)CC1COC2Cc3ccccc3C1O2 (stereo not drawn)
2. COc1ccc(-c2coc3cc(OC)cc(O)c3c2=O)cc1 [4',7-DIMETHOXY-5-HYDROXYGENISTEIN]
3. Cc1ccc(OCC2=NN3C(=O)/C(=C\c4ccc([N+](=O)[O-])o4)SC3N2)cc1 (stereo not drawn)
4. COc1ccc(Nc2nc3ccc(C(F)(F)F)cc3nc2-c2ccccc2)cc1OC
5. COC(=O)/C=C(\S/C(=C(/c1ccc(OC)cc1)n1cc(C(=O)OC)c(C(=O)OC)n1)c1ccc(OC)cc1)C(=O)OC

Result:
> 100 µM (inactive)
> 100 µM (inactive)
19.2 µM (inactive)
52.7 µM (inactive)
27.1 µM (inactive)

Provide GI50 for all items below, preserving their order.
1. C/C=C(\N=C=S)C(=O)OC1C(COC(C)=O)OC([C@]2(O)CC(=O)C(N)=C(C(=O)O)C2=O)C(O)C1OC1CC(OC)C(O)([C@@H](C)OC(=O)[C@@H](C)CC)C(C)O1 (stereo partly drawn)
2. Cc1cc(NC(=O)NC(=O)c2ccccc2NC(=O)C(C)N)ccc1Oc1ncc(Br)cn1 (stereo not drawn)
3. COc1cc(/C=C2\N=C(c3ccccc3)N(c3nc4ccc(Sc5ccccc5)cc4[nH]3)C2=O)ccc1O

Result:
20.7 µM (inactive)
1.09 µM (active)
26.1 µM (inactive)

Provide GI50 for all items below, preserving their order.
1. Cn1c(=O)c2nc(NCCO)cnc2n(C)c1=O
2. CN(C)CCCNc1ccc2c(=O)n(CCN(C)C)c(=O)n3c4ccccc4c(=O)c1c23
3. CCOC(=O)C(=O)CC(=O)C(Br)C(Br)c1ccc(Cl)cc1 (stereo not drawn)
4. CC(=O)Nc1ccccc1S(=O)(=O)c1ccccc1
5. C=C1C(=O)OC2/C=C(\CO)C3OC3C3OC3(C)CC(OC(=O)/C(=C/C)CO)C12 (stereo not drawn)
6. C[s+]1c2ccccc2c2ccccc21

Result:
1. > 100 µM (inactive)
2. 0.356 µM (active)
3. > 100 µM (inactive)
4. 0.0409 µM (active)
5. 50.7 µM (inactive)
6. > 100 µM (inactive)

Provide GI50 for all items below, preserving their order.
1. CN(C)CCNC(=O)c1cccc2c(=O)c3ccccc3oc12
2. COc1cccc(C(=O)N2CCc3ccccc32)c1OC
3. CC1(C)OC(=O)N(c2ccccc2)C12C=Cc1cc([N+](=O)[O-])cc([N+](=O)[O-])c1O2 (stereo not drawn)

Result:
1: 24.3 µM (inactive); 2: > 100 µM (inactive); 3: > 100 µM (inactive)

Provide GI50 for all items below, preserving their order.
1. CCCCSc1nsc(N(C(=O)c2ccccc2)C(=O)c2ccccc2)n1
2. CC1(C)O[C@@H](CCl)C[C@H](C#N)O1
3. CC#CC#C/C(=C/C=CC(=O)OC)SC
4. O=C1c2ccccc2C(=O)c2c1ccc(C(=O)O)c2-c1ccc2ccccc2c1

Result:
["26.5 µM (inactive)", "> 100 µM (inactive)", "> 100 µM (inactive)", "22.5 µM (inactive)"]

Provide GI50 for all items below, preserving their order.
1. Cn1c(=S)[nH]c(N)c(Cc2ccccc2)c1=O
2. CC(O)c1cc2c(s1)C(=O)c1ccsc1C2=O (stereo not drawn)

Result:
1: > 100 µM (inactive); 2: 0.14 µM (active)

Provide GI50 for all items below, preserving their order.
1. O=C(/C=C/c1ccccc1)CCC1C(=O)c2ccccc2C1=O
2. O=[N+]([O-])c1ccc(/C=C/c2cc(-c3ccccc3)nc3ccc4ccccc4c23)cc1
3. Cc1ccc(-c2nnc(SCC(=O)O)[nH]2)cc1

Result:
1. > 100 µM (inactive)
2. > 100 µM (inactive)
3. > 100 µM (inactive)

Provide GI50 for all items below, preserving their order.
1. C/C=C\C1OC1(C)c1cc(=O)c2c(C)cc3c(c2o1)C(=O)c1c(O)c(C2CC(C)(N(C)C)C(OC(C)=O)C(C)O2)cc(C2CC(N(C)C)C(O)C(C)O2)c1C3=O (stereo not drawn)
2. C/C(=N\NC1=NCCN1)c1cn(C2=NCCN2)nc1C
3. Cc1ccc(CC(Cc2ccccc2C)C(=O)O)c(C(=O)O)c1 (stereo not drawn)
4. Cc1ccc(S(=O)(=O)NC(=O)NC(C(=O)O)C(C)C)cc1 (stereo not drawn)

Result:
["0.00546 µM (active)", "> 100 µM (inactive)", "> 100 µM (inactive)", "> 100 µM (inactive)"]

----------
Test system: OVCAR-5
Assay: NCI tumour cell line growth inhibition, 48 h
Activity calls are given as the source filed them. Rule as the data show it: active = GI50 up to about 1.1 µM and inactive = higher.
assay-readout: GI50

Here are 3 molecules together with their reported answers.
CC(=O)OCC1OC(n2c3c(cc(C#N)c2=S)CCCCC3)C(OC(C)=O)C(OC(C)=O)C1OC(C)=O (stereo unspecified) ... > 100 µM (inactive)
C=C1C(=O)C2=CC1CCC(=O)C1(C)CCC(OC(C)=O)C(C)(C)C1CC2O (stereo unspecified) ... 5.32 µM (inactive)
O=C1c2ccccc2C(=O)N1CC#CCO ... > 100 µM (inactive)

Provide GI50 for all items below, preserving their order.
1. Cc1ccc(NC(=O)CSC(N)=O)cc1C
2. NC1=NN(c2ccccc2)C2(c3ccncc3C(=O)O)C1C(N)=NN2c1ccccc1 (stereo unspecified)
3. CN1C(=O)CC2(C)c3cc(O)cc(Br)c3N(C)C12 (stereo unspecified)
4. COc1ccc(C(Cl)=C(c2ccc(OCCN(C)C)cc2)c2ccc(OCCN(C)C)cc2)cc1
5. O=C(O)/C=C/C(=O)N1C/C(=C\c2ccccc2)C(=O)/C(=C/c2ccccc2)C1

Result:
1. > 100 µM (inactive)
2. > 100 µM (inactive)
3. > 100 µM (inactive)
4. 1.73 µM (inactive)
5. 17.9 µM (inactive)

Provide GI50 for all items below, preserving their order.
1. CN(CC(=O)O)S(=O)(=O)c1ccc2ccccc2c1
2. CCN(CC)CCNc1ccc2ncn3c4cc(O)ccc4c(=O)c1c23
3. C#CCn1c(=O)c(C)cn(/C(=C/C(=O)OCC)C(=O)OCC)c1=O
4. O=C(O)c1ccccc1/C=N\N=C1NCCCCN1
5. [O-][S+]1c2ccccc2N=C(c2ccc3ccccc3c2)CC1C1=CC=CCC1 (stereo unspecified)
6. O=C(O)C(/C=C/c1ccccc1)c1ccccc1 (stereo unspecified)

Result:
["> 100 µM (inactive)", "11 µM (inactive)", "3.64 µM (inactive)", "> 100 µM (inactive)", "18.9 µM (inactive)", "> 100 µM (inactive)"]

Provide GI50 for all items below, preserving their order.
1. CC(C)(C)CC(C)(C)c1ccc(O)c(C[N+](C)(C)[O-])c1
2. O=C(NC(C(F)(F)F)(C(F)(F)F)P(=O)(Cc1ccccc1)Cc1ccccc1)C(C(F)(F)F)C(F)(F)F

Result:
["> 100 µM (inactive)", "22.3 µM (inactive)"]

Provide GI50 for all items below, preserving their order.
1. Cc1cc(C2(O)C=C(C(C)(C)C)C(=O)C(C(C)(C)C)=C2)c(C)cc1C1(O)C=C(C(C)(C)C)C(=O)C(C(C)(C)C)=C1
2. Cc1ccc(C)c(NC(=O)CC/C(=N\NC(=O)c2c(O)ccc3ccccc23)C(C)C(=O)c2ccc(O)cc2)c1 (stereo unspecified)

Result:
["> 100 µM (inactive)", "37.5 µM (inactive)"]
